Source of measurements: BindingDB's records for doi:10.1021/jm0256169

measurementTarget: cAMP-dependent protein kinase catalytic subunit alpha (Bos taurus)
protocol: Kinase Inhibition Assay
reportedConditions: 25 °C
pIC50: −log10 of the molar value.
testReadout: pIC50

O=C1NC(=O)c2c1c1c3ccccc3[nH]c1c1[nH]c3cc(C(F)(F)F)ccc3c21 : < 5.70
COc1ccc2c(c1)[nH]c1c3[nH]c4ccccc4c3c3c(c21)C(=O)NC3=O : < 5.70
O=C1NC(=O)c2c1c1c3ccccc3[nH]c1c1[nH]c3cc(Br)ccc3c21 : < 4.70
O=C1NC(=O)c2c1c1c3ccccc3[nH]c1c1[nH]c3ccccc3c21 : < 5.70
Cn1c2ccccc2c2c3c(c4c5ccc(F)cc5[nH]c4c21)C(=O)NC3=O : < 5.70
Cc1ccc2c(c1)[nH]c1c3[nH]c4ccccc4c3c3c(c21)C(=O)NC3=O : < 5.70
COc1ccc2c(c1)[nH]c1c3[nH]c4cc(Br)ccc4c3c3c(c21)C(=O)NC3=O : < 5.70
O=C1NC(=O)c2c1c1c3ccccc3[nH]c1c1[nH]c3cc(Cl)ccc3c21 : < 5.70

I would be grateful if you could provide pIC50 for each of the following entries.
1. O=C1NC(=O)c2c1c1c3ccccc3[nH]c1c1[nH]c3cc(F)ccc3c21
2. Cn1c2ccccc2c2c3c(c4c5ccc(Br)cc5[nH]c4c21)C(=O)NC3=O
3. O=C1NC(=O)c2c1c1c3ccccc3[nH]c1c1[nH]c3c(Br)cccc3c21
4. O=C1NC(=O)c2c1c1c3ccccc3[nH]c1c1[nH]c3ccc(Br)cc3c21

1: < 5.70; 2: < 5.70; 3: < 4.70; 4: < 4.70

---

measurementTarget: Calcium/calmodulin-dependent protein kinase type II subunit alpha (Rattus norvegicus, UniProt P11275)
Sequence (P11275 whole entry): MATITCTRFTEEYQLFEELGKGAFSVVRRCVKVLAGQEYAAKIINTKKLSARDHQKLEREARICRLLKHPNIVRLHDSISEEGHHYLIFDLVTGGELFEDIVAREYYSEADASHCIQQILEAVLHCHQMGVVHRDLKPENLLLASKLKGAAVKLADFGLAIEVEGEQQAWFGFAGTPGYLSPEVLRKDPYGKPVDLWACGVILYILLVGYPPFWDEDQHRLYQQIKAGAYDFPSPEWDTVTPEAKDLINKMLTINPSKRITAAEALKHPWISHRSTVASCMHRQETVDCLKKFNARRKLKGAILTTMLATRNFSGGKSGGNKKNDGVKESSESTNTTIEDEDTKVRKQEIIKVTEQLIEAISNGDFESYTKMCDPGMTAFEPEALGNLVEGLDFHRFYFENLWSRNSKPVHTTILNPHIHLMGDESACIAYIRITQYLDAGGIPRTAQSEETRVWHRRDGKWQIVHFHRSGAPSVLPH
protocol: Kinase Inhibition Assay
reportedConditions: 25 °C
I'd be grateful if you could share measured IC50 for these entries.

See these solved cases before continuing.
O=C1NC(=O)c2c1c1c3ccccc3[nH]c1c1[nH]c3ccc(Br)cc3c21 : < 1.25 µM
O=C1NC(=O)c2c1c1c3ccccc3[nH]c1c1[nH]c3cc(C(F)(F)F)ccc3c21 : > 2 µM
Cn1c2ccccc2c2c3c(c4c5ccc(F)cc5[nH]c4c21)C(=O)NC3=O : > 2 µM

# context switch: different compound, same IC50
Kindly note the recorded IC50 for COc1ccc2c(c1)[nH]c1c3[nH]c4cc(Br)ccc4c3c3c(c21)C(=O)NC3=O , which is > 2 µM
